Task for the reader: assign each of the following compounds its reported inhibition at 2 µM.
# Study Target: recombinant PIM-1 (Homo sapiens, UniProt P11309)
# Sequence (P11309 whole entry): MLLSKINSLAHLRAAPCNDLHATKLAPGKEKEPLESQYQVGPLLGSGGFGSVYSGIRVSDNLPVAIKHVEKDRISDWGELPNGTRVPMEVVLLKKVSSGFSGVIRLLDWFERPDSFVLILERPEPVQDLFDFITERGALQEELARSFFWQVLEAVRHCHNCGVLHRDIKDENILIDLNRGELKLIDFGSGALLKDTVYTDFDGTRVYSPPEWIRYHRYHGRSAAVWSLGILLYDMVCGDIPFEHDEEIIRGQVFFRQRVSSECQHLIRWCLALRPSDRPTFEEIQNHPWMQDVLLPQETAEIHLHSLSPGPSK
# Measurement Protocol: PIM-1 kinase assay (radiometric, 15 uM ATP, DMSO 4%)
# Assay type: biochemical
# Reported Conditions: Table 1; % inhibition at the high dose (2 micromolar) in a single screening assay; 15 μM ATP
Please reply with the bare figure in % and do not write the unit itself.

Input CCN1CCCC1CNC(=O)c1cc(-c2ccc(/C=C3/C(=O)Nc4ccc(F)cc43)o2)ccc1Cl (stereo not shown) [Compound 71] , output reported inhibition at 2 µM.
5.32

Input NCc1cccc(-c2ccc(/C=C3/C(=O)Nc4ccccc43)o2)c1 [Compound 165] , output reported inhibition at 2 µM.
19.4

Input CCN(CC)C(=O)c1cccc(-c2ccc(/C=C3/C(=O)Nc4ccc(Cl)cc43)o2)c1 [Compound 173] , output reported inhibition at 2 µM.
29.2

Input O=C1Nc2ccc(Cl)cc2/C1=C\c1ccc(-c2cccc(C(=O)NCc3ccnc(N4CCCC4)c3)c2)o1 [Compound 141] , output reported inhibition at 2 µM.
26.3

Input O=C1Nc2ccc(Cl)cc2/C1=C\c1ccc(-c2cccc(C(=O)N3CCCC(O)C3)c2)o1 (stereo not shown) [Compound 178] , output reported inhibition at 2 µM.
-19.4

Input CN(CCN1CCCC1)C(=O)c1ccccc1-c1ccc(/C=C2/C(=O)Nc3ccccc32)o1 [Compound 55] , output reported inhibition at 2 µM.
2.91

Input Cc1cnc(CNC(=O)c2ccc(-c3ccc(/C=C4/C(=O)Nc5ccc(F)cc54)o3)cc2)cn1 [Compound 82] , output reported inhibition at 2 µM.
26.6

Input CN1CCCC(NC(=O)c2cc(-c3ccc(/C=C4/C(=O)Nc5ccc(F)cc54)o3)ccc2Cl)C1 (stereo not shown) [Compound 70] , output reported inhibition at 2 µM.
27.6

Input COC(=O)c1ccc(-c2ccc(/C=C3/C(=O)Nc4ccccc43)o2)c(N)c1 [Compound 143] , output reported inhibition at 2 µM.
30.6

Input O=C1Nc2ccccc2/C1=C\c1ccc(-c2cccc(C(=O)Nc3nccs3)c2)o1 [Compound 167] , output reported inhibition at 2 µM.
-3.02

====

# Study Target: recombinant human PIM2 (Homo sapiens)
# Sequence (Q9P1W9 whole entry): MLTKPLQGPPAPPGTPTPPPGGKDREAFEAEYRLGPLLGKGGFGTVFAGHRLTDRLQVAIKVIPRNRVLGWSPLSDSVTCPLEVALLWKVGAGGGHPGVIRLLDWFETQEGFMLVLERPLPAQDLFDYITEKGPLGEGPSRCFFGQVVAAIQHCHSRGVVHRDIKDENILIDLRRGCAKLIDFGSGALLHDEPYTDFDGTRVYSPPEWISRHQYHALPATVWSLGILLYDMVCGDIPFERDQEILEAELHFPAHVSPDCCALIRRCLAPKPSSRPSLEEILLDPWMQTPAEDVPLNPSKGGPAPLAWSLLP
# Measurement Protocol: PIM-2 assay (radiometric)
# Type: biochemical
# Reported Conditions: Table 6; 15 μm ATP; read-out: PIM2: IC50 (15 μm ATP)
Task for the reader: assign each of the following molecules its reported IC50.

Input CCN(CC)CCNC(=O)c1ccc(-c2ccc(/C=C3/C(=O)Nc4ccc(Cl)cc43)o2)cc1 [drawing 260] , output reported IC50.
< 1000 nM

Input C/C(=C1\C(=O)Nc2ccc(Cl)cc21)c1ccc(-c2ccc(C(=O)N3CCCN(C)CC3)cc2)o1 [drawing 258] , output reported IC50.
< 1000 nM

Input CN1CCCN(C(=O)c2ccc(-c3ccc(/C=C4/C(=O)Nc5ccc(Cl)cc54)o3)cc2)CC1 [drawing 259] , output reported IC50.
< 1000 nM

====

# Study Target: recombinant PIM-1 (Homo sapiens, UniProt P11309)
# Measurement Protocol: PIM-1 kinase assay (radiometric, 15 uM ATP, DMSO 4%)
# Format: biochemical
# Reported Conditions: Table 1; % inhibition at the high dose (2 micromolar) in a single screening assay; 15 μM ATP
# Experimental: The following procedure was used to assay the PIM-1 kinase activity of compounds of the invention. […] (specific activity approx. 500 cpm/pmol), DMSO 4% and test inhibitor compound at the required concentration. […] The plate was washed 4 times with 0.075% phosphoric acid (100 ul per well) and then, after the addition of scintillation fluid (20 ul per well), the counts were measured by a scintillation counter.
Task for the reader: assign each of the following molecules its reported inhibition at 2 µM.
Entry format: amount then unit.

Input `CN(C)C1CCN(C(=O)c2ccc(-c3ccc(/C=C4/C(=O)Nc5ccccc54)o3)cn2)CC1` , output reported inhibition at 2 µM.
30.5%

Input CN1CCCCC1CNC(=O)c1cccc(-c2ccc(/C=C3/C(=O)Nc4ccc(C#N)cc43)o2)c1 (stereo not shown) , output reported inhibition at 2 µM.
-0.36%

Input CCN1CCCC1CNC(=O)c1cccc(-c2ccc(/C=C3/C(=O)Nc4ccccc43)o2)c1 (stereo not shown) , output reported inhibition at 2 µM.
10.6%

Input `CN(C)C1CCN(C(=O)c2ccccc2-c2ccc(/C=C3/C(=O)Nc4ccccc43)o2)CC1` , output reported inhibition at 2 µM.
-2.65%

Input `O=C1Nc2ccccc2/C1=C\c1ccc(-c2ccc(C(=O)NCCN3CCCC3)nc2)o1` , output reported inhibition at 2 µM.
27.2%

Input `O=C1Nc2ccc([N+](=O)[O-])cc2/C1=C\c1ccc(-c2cccc(C(=O)NCCN3CCCC3)c2)o1` , output reported inhibition at 2 µM.
20.4%

Input `O=C1Nc2c(Cl)cccc2/C1=C\c1ccc(-c2ccc(Cl)c(C(=O)NCCN3CCCC3)c2)o1` , output reported inhibition at 2 µM.
-16.7%

Input `CN1CCN(C(=O)c2cc(-c3ccc(/C=C4/C(=O)Nc5ccccc54)o3)ccc2Cl)CC1` , output reported inhibition at 2 µM.
-18.8%

Input `O=C1Nc2ccc(F)cc2/C1=C\c1cc(-c2cccc(C(=O)NCCN3CCCC3)c2)co1` , output reported inhibition at 2 µM.
9%

Input `CN1CC(NC(=O)c2cc(-c3ccc(/C=C4/C(=O)Nc5ccccc54)o3)ccc2Cl)C1` , output reported inhibition at 2 µM.
-15.8%

Input CN1CCC(N(C)C(=O)c2ccccc2-c2ccc(/C=C3/C(=O)Nc4ccc(F)cc43)o2)C1 (stereo not shown) , output reported inhibition at 2 µM.
18.2%

Input `CCN(CC)CCNC(=O)c1ccccc1-c1ccc(/C=C2/C(=O)Nc3ccc(F)cc32)o1` , output reported inhibition at 2 µM.
11.2%

Input CN1CCCCC1CNC(=O)c1cccc(-c2ccc(/C=C3/C(=O)Nc4c(Cl)cccc43)o2)c1 (stereo not shown) , output reported inhibition at 2 µM.
9.73%

Input `O=C1Nc2ccccc2/C1=C\c1ccc(-c2ccc(C(=O)NCCN3CCCC3)c(F)c2)o1` , output reported inhibition at 2 µM.
11.3%

Input CN1CCCC(NC(=O)c2ccc(-c3ccc(/C=C4/C(=O)Nc5ccccc54)o3)cn2)C1 (stereo not shown) , output reported inhibition at 2 µM.
1.44%

Input `O=C1Nc2c(F)cccc2/C1=C\c1ccc(-c2ccc(Cl)c(C(=O)NCCN3CCCC3)c2)o1` , output reported inhibition at 2 µM.
-5.3%

====

# Test system: MiaPaca human pancreatic carcinoma cells
# Measurement Protocol: Alamar Blue cell proliferation assay, MiaPaCa
# Type: cell-based
# Reported Conditions: MIA PaCa-2, Table 2, read-out: AB: MiaPaCa
Outcome Measure: pIC50
Note: pIC50 values are expressed as the negative base-10 logarithm of concentration in M.

Supply pIC50 measured with MiaPaca human pancreatic carcinoma cells for CN1CCCN(C(=O)c2cccc(-c3ccc(CC4C(=O)Nc5ccc(Cl)cc54)o3)c2)CC1 (stereo not shown) [drawing 213] .
6.25

====

# Study Target: recombinant PIM-1 (Homo sapiens, UniProt P11309)
# Measurement Protocol: PIM-1 kinase assay (radiometric, 15 uM ATP, DMSO 4%)
# Format: biochemical
# Reported Conditions: Table 1; % inhibition at the high dose (2 micromolar) in a single screening assay; 15 μM ATP
Assign class by inhibition at 2 µM: not lower than 20% means True; lower than 20% means False.

Decide: is the reported value of inhibition at 2 µM for CN1CCC(N(C)C(=O)c2ccccc2-c2ccc(/C=C3/C(=O)Nc4ccccc43)o2)C1 (centres unmarked) equal to or greater than 20%?
False

Decide: is the reported value of inhibition at 2 µM for `O=C1Nc2ccc(Cl)cc2/C1=C\c1ccc(-c2cccc(C(=O)NCc3ccccn3)c2)o1` equal to or greater than 20%?
False

Decide: is the reported value of inhibition at 2 µM for `Cc1cnc(CNC(=O)c2cccc(-c3ccc(/C=C4/C(=O)Nc5ccc(F)cc54)o3)c2)cn1` equal to or greater than 20%?
True

Decide: is the reported value of inhibition at 2 µM for `CN(C)C1CCN(C(=O)c2cc(-c3ccc(/C=C4/C(=O)Nc5ccc(F)cc54)o3)ccc2Cl)CC1` equal to or greater than 20%?
True

Decide: is the reported value of inhibition at 2 µM for `O=C1Nc2ccc(Cl)cc2/C1=C\c1ccc(-c2ccc(Cl)c(C(=O)NCCN3CCCC3)c2)o1` equal to or greater than 20%?
True

Decide: is the reported value of inhibition at 2 µM for `O=C1Nc2ccc(F)cc2/C1=C\c1ccc(-c2cccc(C(=O)N3CCOCC3)c2)o1` equal to or greater than 20%?
True

Decide: is the reported value of inhibition at 2 µM for `O=C1Nc2c(Cl)cccc2/C1=C\c1ccc(-c2cccc(C(=O)NCCN3CCCC3)c2)o1` equal to or greater than 20%?
False

Decide: is the reported value of inhibition at 2 µM for `O=C1Nc2ccccc2/C1=C\c1ccc(-c2ccc(C(=O)NCCCn3ccnc3)c(F)c2)o1` equal to or greater than 20%?
True
